The reported measurements were obtained from patent US20230135894A1.

# targetUnderTest: MK2 (Homo sapiens, UniProt P49137)
# Sequence (P49137 whole entry): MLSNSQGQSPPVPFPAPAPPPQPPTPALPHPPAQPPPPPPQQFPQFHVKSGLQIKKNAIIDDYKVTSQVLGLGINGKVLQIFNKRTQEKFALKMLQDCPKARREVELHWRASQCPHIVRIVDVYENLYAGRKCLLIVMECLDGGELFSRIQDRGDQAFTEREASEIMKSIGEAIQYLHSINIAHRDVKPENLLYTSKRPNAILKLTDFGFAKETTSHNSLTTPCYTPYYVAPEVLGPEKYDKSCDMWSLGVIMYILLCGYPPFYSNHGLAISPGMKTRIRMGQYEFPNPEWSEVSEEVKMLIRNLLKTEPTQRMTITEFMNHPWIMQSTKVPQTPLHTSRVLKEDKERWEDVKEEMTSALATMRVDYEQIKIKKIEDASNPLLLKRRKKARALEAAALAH
# measurementProtocol: MK2 degradation in human THP-1 monocytic cells (MSD, 24 h)
# Type: cell-based
# Design: endogenous in cells
# measurementParameters: THP-1, THP-1 cells
Examples of molecules with documented Dmax follow.

These recorded examples may help you get a feel for the data.
Sample CC(C)c1cc(-c2ccc3c(ccc4sc5c(c43)NC[C@@H](C)NC5=O)n2)cc(N2CCN(CC3CCN(c4ccc5c(c4)n(C)c(=O)n5C4CCC(=O)NC4=O)CC3)CC2)c1 (stereo partly drawn) ; Dmax observed: > 75%

For this molecule ( Cn1c(=O)n(C2CCC(=O)NC2=O)c2ccc(N3CCC(CN4CCN(c5cc(-c6ccc7cc[nH]c7c6)cc(-c6cc(-c7cc8c([nH]7)CCNC8=O)ccn6)c5)CC4)CC3)cc21 (stereo not drawn) ), measured Dmax is 50 to 75%

Entry C[C@@H]1CNc2c(sc3ccc4nc(-c5ccc(N6CCC(CN7CCN(c8ccc9c(c8)n(C)c(=O)n9C8CCC(=O)NC8=O)CC7)CC6)cc5Cl)ccc4c23)C(=O)N1 (stereo partly drawn) ; Dmax = > 75%

Cc1cc(N2CCN(CCCc3ccc4c(c3)n(C)c(=O)n4C3CCC(=O)NC3=O)CC2)ncc1-c1ccc2c(ccc3sc4c(c32)NC[C@@H](C)NC4=O)n1 (stereo partly drawn) has a reported Dmax of 50 to 75%

Form field Dmax, entry Cn1c(=O)n(C2CCC(=O)NC2=O)c2ccc(CCN3CCN(c4ccc(-c5cc(-c6cc7c([nH]6)C6(CC6)CNC7=O)ccn5)cc4)CC3)cc21 (stereo not drawn) : < 50%

New cases:
The reported Dmax of the molecule C[C@@H]1CNc2c(sc3ccc4nc(-c5cccc(N6CCC(CN7CCC(CCc8cccc9c8n(C)c(=O)n9C8CCC(=O)NC8=O)CC7)CC6)c5)ccc4c23)C(=O)N1 (stereo partly drawn) was > 75%

Dmax recorded for this molecule, C[C@@H]1CNc2c(sc3ccc4nc(-c5ccnc(N6CCN(CC7CCN(c8cccc9c8n(C)c(=O)n9C8CCC(=O)NC8=O)CC7)CC6)c5)ccc4c23)C(=O)N1 (stereo partly drawn) , is > 75%

Entry under test: C[C@@H]1CNc2c(sc3ccc4nc(-c5ccc(N6CCN(CCCCOc7ccc(N8CCC(=O)NC8=O)cc7)CC6)nc5)ccc4c23)C(=O)N1 . Its Dmax was > 75%

Please fill in: Dmax reported for Cn1c(=O)n(C2CCC(=O)NC2=O)c2ccc(CCN3CCN(c4ccc(-c5cc(-c6cc7c([nH]6)C6(CC6)CNC7=O)ccn5)cn4)CC3)cc21 (stereo not drawn) = < 50%

The molecule identified as C[C@@H]1CNc2c(sc3ccc4nc(-c5ccnc(N6CCN(CCCc7ccc8c(c7)n(C)c(=O)n8C7CCC(=O)NC7=O)CC6)c5)ccc4c23)C(=O)N1 (stereo partly drawn) registered its Dmax at > 75%
